# System: Ramos B cells
# test.protocol: cell death of Ramos B cells, propidium iodide exclusion by flow cytometry, 24 h
# Assay type: cell-based, human
# stated.conditions: Homo sapiens, Ramos, 24 h, read-out: EC50 (μM), cell death
observed.property: EC50

molecule="CN1C(=O)CN=C(c2ccccc2)c2cc(Cl)ccc21 [Dz, diazepam, reference compound]" measured="> 80 µM"

* * *

# system: mitochondrial F1F0-ATPase (Bos taurus, UniProt P13621+P32876)
# test.protocol: biochemical
# Set-up: species or system bovine
# stated.conditions: Ki (E), synthesis, three-dimensional fit, Bz-423
pKi: −log10 of the molar value.
observed.property: pKi

compound="CN1C(=O)C(Cc2ccc3ccccc3c2)N=C(c2ccc(O)cc2)c2cc(Cl)ccc21 (stereo not shown)" measured=5.16
